B1: FEM1B (parent)
chain: TLAALLLNRSESDIRYLLGYVSQQ

Variants of: B1
assay_summary: protein stability index of a GFP-peptide fusion (GPS, HEK-293T) (PSI 1-6); higher = more stable;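 note: lentivirally expressed fusions sorted by FACS into six bins by GFP to DsRed ratio, PSI derived from sequencing read proportions per bin multiplied by bin number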
condition_label: c terminus: a fixed tail appended
Binary classification by protein stability index, with 2 as an inclusive lower bound for yes; all other cases are no.

A3M yes

// query Is protein stability index at least 2? Consider Y20N
// result yes

// query Reported protein stability index at or above 2? Y16E
// result yes

// query Kindly determine if protein stability index recorded for D13H is above or exactly 2.
// result yes

// query Does L7G have a reported protein stability index of at least 2?
// result no

// query Please indicate if the recorded protein stability index for R9P meets or exceeds 2.
// result no
